Value source: patent US11667652B2

target_or_test_system: MCL1/Bim (Homo sapiens (Human), UniProt Q07820)
Sequence (Q07820 171-327): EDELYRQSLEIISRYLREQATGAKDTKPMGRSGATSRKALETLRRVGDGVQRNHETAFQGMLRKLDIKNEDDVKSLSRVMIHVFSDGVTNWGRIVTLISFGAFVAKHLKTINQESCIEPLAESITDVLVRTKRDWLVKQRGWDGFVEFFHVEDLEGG
experiment: MCL1/Bim Binding AlphaLISA Assay
details: recombinant human 6xHis-MCL1 (171-327), biotinylated Bim peptide (51-76)
readout_type: IC50 (pM)

[P] COCCOCCOCCO[C@H]1/C=C/[C@H](OC)[C@@H]2CC[C@H]2CN2C[C@@]3(CCCc4cc(Cl)ccc43)COc3ccc(cc32)C(=O)N=[S@](=O)(NC(=O)c2cn(C)nc2OC)C[C@H]1C [Example 76]
[Q] COc1nn(C)cc1C(=O)N[S@@]1(=O)=NC(=O)c2ccc3c(c2)N(C[C@@H]2CC[C@H]2[C@@H](OC)/C=C/[C@H](OCCN2CC4(COC4)C2)[C@H](C)C1)C[C@@]1(CCCc2cc(Cl)ccc21)CO3 [Example 86]
Data request: # query: argmin of IC50 over P and Q Please respond with the label that marks your chosen entry.
Data returned: P
(P: 48 pM, Q: 88 pM)

###

target_or_test_system: MCL1/Bim (Homo sapiens (Human))
experiment: MCL1/Bim Binding AlphaLISA Assay
details: recombinant human 6xHis-MCL1 (171-327), biotinylated Bim peptide (51-76)
readout_type: IC50 (nM)

Below, each entry is followed by its recorded IC50 result.
compound	units_label	IC50
CO[C@H]1/C=C/C[C@H](C)C[S@@](=O)(NC(=O)c2cc3n(c2)CCOC3)=NC(=O)c2ccc3c(c2)N(C[C@@H]2CC[C@H]21)C[C@]1(CO3)C[C@@H]2C[C@@H]2c2cc(Cl)ccc21	nM	0.233
COc1nn(C)cc1C(=O)N[S@@]1(=O)=NC(=O)c2ccc3c(c2)N(C[C@@H]2CC[C@H]2[C@@H](OC)C/C=C\[C@H](C)C1)C[C@@]1(CCCc2cc(Cl)ccc21)CO3 (mixture of isomers)	nM	0.562

[A] CO[C@H]1/C=C/C[C@H](C)C[S@@](=O)(Nc2nc(O)nc3nn(C)cc23)=NC(=O)c2ccc3c(c2)N(C[C@@H]2CC[C@H]21)C[C@@]1(CCCc2cc(Cl)ccc21)CO3
[B] COc1nn(C)cc1C(=O)N[S@@]1(=O)=NC(=O)c2ccc3c(c2)N(C[C@@H]2CC[C@H]2[C@](O)(CC(=O)N2CCN(C)CC2)/C=C/C[C@H](C)C1)C[C@@]1(CCCc2cc(Cl)ccc21)CO3
[C] CO[C@H]1/C=C/C[C@H](C)C[S@@](=O)(Nc2ncnc3nn(C)cc23)=NC(=O)c2ccc3c(c2)N(C[C@@H]2CC[C@H]21)C[C@@]1(CCCc2cc(Cl)ccc21)CO3
[D] COc1nn(C)cc1C(=O)N[S@@]1(=O)=NC(=O)c2ccc3c(c2)N(C[C@@H]2CC[C@H]2[C@@H](OC(=O)c2cn(C)nc2OC)/C=C/[C@H](O)[C@H](C)[C@H]1C)C[C@@]1(CCCc2cc(Cl)ccc21)CO3
Data request: Order the records, beginning with the lowest IC50 and ending with the highest. Quick reminder: the answer is the labels in the order asked.
Data returned: B, C, A, D

[a] CO[C@H]1/C=C/C[C@H](C)C[S@@](=O)(Nc2cncc(C#N)n2)=NC(=O)c2ccc3c(c2)N(C[C@@H]2CC[C@H]21)C[C@@]1(CCCc2cc(Cl)ccc21)CO3
[b] COc1nn(C)cc1C(=O)N[S@@]1(=O)=NC(=O)c2ccc3c(c2)N(C[C@@H]2CC[C@H]2[C@@H](OCCN2CC(N(C)C)C2)/C=C/C[C@H](C)C1)C[C@@]1(CCCc2cc(Cl)ccc21)CO3
Data request: Response body: label of entry with the larger IC50; valid values a , b . Please respond with the label that marks your chosen entry.
Data returned: a

###

target_or_test_system: MCL1/Bim (Homo sapiens (Human))
experiment: MCL1/Bim Binding AlphaLISA Assay
details: recombinant human 6xHis-MCL1 (171-327), biotinylated Bim peptide (51-76)
readout_type: IC50 (nM)

Below, each entry is followed by its recorded IC50 result.
compound	IC50, nM
CO[C@@H]1/C=C\C[C@H](C)C[S@@](=O)(Nc2ncnc3nn(C)cc23)=NC(=O)c2ccc3c(c2)N(C[C@@H]2CC[C@H]21)C[C@@]1(CCCc2cc(Cl)ccc21)CO3	0.103
COc1nn(C)cc1C(=O)N[S@@]1(=O)=NC(=O)c2ccc3c(c2)N(C[C@@H]2CC[C@H]2[C@@H](OC)C#C[C@H](OC)[C@H](C)C1)C[C@@]1(CCCc2cc(Cl)ccc21)CO3	0.309
COc1nn(C)cc1C(=O)N[S@@]1(=O)=NC(=O)c2ccc3c(n2)N(C[C@@H]2CC[C@H]2[C@@H](OC)/C=C/C[C@H](C)C1)C[C@@]1(CCCc2cc(Cl)ccc21)CO3	0.02
COc1nn(C)cc1C(=O)N[S@@]1(=O)=NC(=O)c2ccc3c(c2)N(C[C@@H]2CC[C@H]2[C@@H](O)C#CC[C@H](C)C1)C[C@@]1(CCCc2cc(Cl)ccc21)CO3 [Example 35]	0.043
COc1nn(C)cc1C(=O)N[S@@]1(=O)=NC(=O)c2ccc3c(c2)N(C[C@@H]2CC[C@H]2[C@@](O)(CC(=O)N(C)C)/C=C/C[C@H](C)C1)C[C@@]1(CCCc2cc(Cl)ccc21)CO3	0.047

[I] COc1nn(C)cc1C(=O)N[S@@]1(=O)=NC(=O)c2ccc3c(c2)N(C[C@@H]2CC[C@H]2[C@@H](OCC(O)CO)/C=C/C[C@H](C)C1)C[C@@]1(CCCc2cc(Cl)ccc21)CO3 (mixture of isomers)
[II] COc1nn(C)cc1C(=O)N[S@@]1(=O)=NC(=O)c2ccc3c(c2)N(C[C@@H]2CC[C@H]2[C@@H](OC)[C@H](O)[C@@H](O)C[C@H](C)C1)C[C@@]1(CCCc2cc(Cl)ccc21)CO3
[III] COc1nn(C)cc1C(=O)N[S@@]1(=O)=NC(=O)c2ccc3c(c2)N(C[C@@H]2CC[C@H]2[C@@H](O)C#CC[C@H](C)C1)C[C@@]1(CCCc2cc(Cl)ccc21)CO3 [Example 36]
[IV] COc1nn(C)cc1C(=O)N[S@@]1(=O)=NC(=O)c2ccc3c(c2)N(C[C@@H]2CC[C@H]2[C@H]2O[C@H](CCN(C)C)C[C@@H]2CC[C@H](C)C1)C[C@@]1(CCCc2cc(Cl)ccc21)CO3
[V] CO[C@H]1/C=C/C[C@H](C)C[S@@](=O)(NC(=O)NC2CC2)=NC(=O)c2ccc3c(c2)N(C[C@@H]2CC[C@H]21)C[C@]1(CO3)C[C@@H]2C[C@@H]2c2cc(Cl)ccc21
Data request: Reorder: IC50, max to min. Quick reminder: the answer is the labels in the order asked.
Data returned: III, V, I, II, IV

###

target_or_test_system: MCL1/Bim (Homo sapiens (Human))
experiment: MCL1/Bim Binding AlphaLISA Assay
details: recombinant human 6xHis-MCL1 (171-327), biotinylated Bim peptide (51-76)
pIC50: −log10 of the molar value.
readout_type: pIC50

molecule	pIC50
CO[C@H]1CCC[C@H](C)C[S@@](=O)(Nc2ncnc3nn(C)cc23)=NC(=O)c2ccc3c(c2)N(C[C@@H]2CC[C@H]21)C[C@@]1(CCCc2cc(Cl)ccc21)CO3 [Example 28]	9.92
CO[C@H]1/C=C/C[C@H](C)[C@@H](C)[S@@](=O)(NC(=O)c2cnn(C)c2)=NC(=O)c2ccc3c(n2)N(C[C@@H]2CC[C@H]21)C[C@]1(CO3)C[C@@H]2C[C@@H]2c2cc(Cl)ccc21 [Example 205]	10.22
COc1nn(C)cc1C(=O)N[S@@]1(=O)=NC(=O)c2ccc3c(c2)N(C[C@@H]2CC[C@H]2[C@@H](OC)CC2CC(CCN(C)C)OC2[C@H](C)C1)C[C@@]1(CCCc2cc(Cl)ccc21)CO3 (some centres unmarked) [Example 143]	10.43

[P] COc1nn(C)cc1C(=O)N[S@@]1(=O)=NC(=O)c2ccc3c(c2)N(C[C@@H]2CC[C@H]2[C@H]2OC(=O)C[C@@H]2CC[C@H](C)C1)C[C@@]1(CCCc2cc(Cl)ccc21)CC3 [Example 151]
[Q] COc1nn(C)cc1C(=O)N[S@@]1(=O)=NC(=O)c2ccc3c(c2)N(C[C@@H]2CC[C@H]2[C@@](CN2CCN(C4COC4)CC2)(OC)/C=C/C[C@H](C)C1)C[C@@]1(CCCc2cc(Cl)ccc21)CO3 [Example 116]
Data request: Response body: label of entry with the larger pIC50; valid values P , Q . Please respond with the label that marks your chosen entry.
Data returned: P

###

Tested on: SKBR3 cells
experiment: SKBR3 Cell Viability Assay
Format: cell-based
details: 72 hours, CellTiter Glo, read-out: MCL1 CV SKBR3 EC50
readout_type: EC50 (µM)

Below, each entry is followed by its recorded EC50 result.
compound	target_or_test_system	readout_type	units_label	recorded_number
COc1nn(C)cc1C(=O)N[S@@]1(=O)=NC(=O)c2ccc3c(c2)N(C[C@@H]2CC[C@H]2[C@@H](O)C#CC[C@H](C)C1)C[C@@]1(CCCc2cc(Cl)ccc21)CO3 [Example 36]	SKBR3 cells	EC50	µM	1.07
COc1nn(C)cc1C(=O)N[S@@]1(=O)=NC(=O)c2ccc3c(c2)N(C[C@@H]2CC[C@H]2[C@@H](OC)CC2CC(CCN(C)C)OC2[C@H](C)C1)C[C@@]1(CCCc2cc(Cl)ccc21)CO3 (stereo partly shown) [Example 143]	SKBR3 cells	EC50	µM	0.0375
COc1nn(C)cc1C(=O)N[S@@]1(=O)=NC(=O)c2ccc3c(c2)N(C[C@@H]2CC[C@H]2/C=C/CC[C@H](C)C1)C[C@@]1(CCCc2cc(Cl)ccc21)CO3 (mixture of isomers) [Example 129]	SKBR3 cells	EC50	µM	1.21

[a] COc1nn(C)cc1C(=O)N[S@@]1(=O)=NC(=O)c2ccc3c(c2)N(C[C@@H]2CC[C@H]2[C@H]2OCCCC2CC[C@H](C)C1)C[C@@]1(CCCc2cc(Cl)ccc21)CO3 (mixture of isomers) [Example 138]
[b] COc1nn(C)cc1C(=O)N[S@@]1(=O)=NC(=O)c2ccc3c(c2)N(C[C@@H]2CC[C@H]2[C@@](O)(CCN2CCOCC2)/C=C/C[C@H](C)C1)C[C@@]1(CCCc2cc(Cl)ccc21)CO3 [Example 113]
Data request: Response body: label of entry with the larger EC50; valid values a , b . Please respond with the label that marks your chosen entry.
Data returned: a
